Assay: In vivo plasma pharmacokinetics in rats
Parameters: species or system Sprague-Dawley rats
Conditions: Sprague-Dawley, iv, Rat, I.V. 1 mg/kg

{"compound.structure.string": "CC[C@H]1CN2CCc3cc(OC)c(OC)cc3[C@@H]2C[C@@H]1C[C@H]1NCCc2cc(OC)c(OC)cc21", "u": "ng/mL", "C0": 33.5}

====

Assay: in vivo
Settings: mouse, iv, 1 mg/kg, AUC0-t, mice, I.V. 1 mg/kg, Kidney
assay.readout: AUC(0-t) (ng·h/mL)

{"compound": "CC[C@H]1CN2CCc3cc(OC)c(OC)cc3[C@@H]2C[C@@H]1C[C@H]1NCCc2cc(OC)c(OC)cc21 [Emetine]", "assay.readout": "AUC(0-t)", "reported.value": 37000}
